Experiment: Assay 1: stability (influencing factor tests: high temperature, high humidity, illumination) of amorphous form and crystal forms I, II, VII; content and purity by HPLC
Assay type: physicochemical
Conditions: 40° C./75% ± 5% RH, Day 7
For each record, write down the corresponding Content.
Please state the number and follow it with the unit.

Given the molecule CN(C)c1cc(CN2CC3CC3C2)c(O)c2c1C[C@H]1C[C@H]3[C@H](N(C)C)C(O)=C(C(N)=O)C(=O)[C@@]3(O)C(O)=C1C2=O (single isomer, unassigned) [Crystal form II] , write its reported Content.
96.5%

Given the molecule CN(C)c1cc(CN2CC3CC3C2)c(O)c2c1C[C@H]1C[C@H]3[C@H](N(C)C)C(O)=C(C(N)=O)C(=O)[C@@]3(O)C(O)=C1C2=O (stereo partly shown) [Crystal form I] , write its reported Content.
97.4%

Given the molecule CN(C)c1cc(CN2CC3CC3C2)c(O)c2c1C[C@H]1C[C@H]3[C@H](N(C)C)C(O)=C(C(N)=O)C(=O)[C@@]3(O)C(O)=C1C2=O (stereo partly shown) [Amorphous form] , write its reported Content.
94.7%

Given the molecule CN(C)c1cc(CN2CC3CC3C2)c(O)c2c1C[C@H]1C[C@H]3[C@H](N(C)C)C(O)=C(C(N)=O)C(=O)[C@@]3(O)C(O)=C1C2=O (stereo partly shown) [Crystal form VII] , write its reported Content.
94.6%

====

Test: Assay 1: stability (influencing factor tests: high temperature, high humidity, illumination) of amorphous form and crystal forms I, II, VII; content and purity by HPLC
Format: physicochemical
Details: 25° C./75% ± 5% RH, Day 7
For each record, write down the corresponding Content.
The answer is to be given in %; state only the numeric part.

Given the molecule CN(C)c1cc(CN2CC3CC3C2)c(O)c2c1C[C@H]1C[C@H]3[C@H](N(C)C)C(O)=C(C(N)=O)C(=O)[C@@]3(O)C(O)=C1C2=O (single isomer, unassigned) [Crystal form II] , write its reported Content.
95.9

Given the molecule CN(C)c1cc(CN2CC3CC3C2)c(O)c2c1C[C@H]1C[C@H]3[C@H](N(C)C)C(O)=C(C(N)=O)C(=O)[C@@]3(O)C(O)=C1C2=O (stereo partly shown) [Crystal form I] , write its reported Content.
97.2

Given the molecule CN(C)c1cc(CN2CC3CC3C2)c(O)c2c1C[C@H]1C[C@H]3[C@H](N(C)C)C(O)=C(C(N)=O)C(=O)[C@@]3(O)C(O)=C1C2=O (stereo partly shown) [Crystal form VII] , write its reported Content.
96.1

Given the molecule CN(C)c1cc(CN2CC3CC3C2)c(O)c2c1C[C@H]1C[C@H]3[C@H](N(C)C)C(O)=C(C(N)=O)C(=O)[C@@]3(O)C(O)=C1C2=O (stereo partly shown) [Amorphous form] , write its reported Content.
98.7

====

For each record, write down the corresponding Purity.
Test: Assay 1: stability (influencing factor tests: high temperature, high humidity, illumination) of amorphous form and crystal forms I, II, VII; content and purity by HPLC
Format: physicochemical
Details: 40° C./75% ± 5% RH, Day 7
The answer is to be given in %; state only the numeric part.

Given the compound CN(C)c1cc(CN2CC3CC3C2)c(O)c2c1C[C@H]1C[C@H]3[C@H](N(C)C)C(O)=C(C(N)=O)C(=O)[C@@]3(O)C(O)=C1C2=O (stereo partly shown) [Crystal form I] , write its reported Purity.
98.0

Given the compound CN(C)c1cc(CN2CC3CC3C2)c(O)c2c1C[C@H]1C[C@H]3[C@H](N(C)C)C(O)=C(C(N)=O)C(=O)[C@@]3(O)C(O)=C1C2=O (stereo partly shown) [Amorphous form] , write its reported Purity.
94.9

Given the compound CN(C)c1cc(CN2CC3CC3C2)c(O)c2c1C[C@H]1C[C@H]3[C@H](N(C)C)C(O)=C(C(N)=O)C(=O)[C@@]3(O)C(O)=C1C2=O (single isomer, unassigned) [Crystal form II] , write its reported Purity.
96.2

Given the compound CN(C)c1cc(CN2CC3CC3C2)c(O)c2c1C[C@H]1C[C@H]3[C@H](N(C)C)C(O)=C(C(N)=O)C(=O)[C@@]3(O)C(O)=C1C2=O (stereo partly shown) [Crystal form VII] , write its reported Purity.
96.4

====

For each record, write down the corresponding Content.
Experiment: Assay 1: stability (influencing factor tests: high temperature, high humidity, illumination) of amorphous form and crystal forms I, II, VII; content and purity by HPLC
Type: physicochemical
Settings: 40° C./75% ± 5% RH, Day 14

Given the molecule CN(C)c1cc(CN2CC3CC3C2)c(O)c2c1C[C@H]1C[C@H]3[C@H](N(C)C)C(O)=C(C(N)=O)C(=O)[C@@]3(O)C(O)=C1C2=O (stereo partly shown) [Crystal form I] , write its reported Content.
97.5%

Given the molecule CN(C)c1cc(CN2CC3CC3C2)c(O)c2c1C[C@H]1C[C@H]3[C@H](N(C)C)C(O)=C(C(N)=O)C(=O)[C@@]3(O)C(O)=C1C2=O (stereo partly shown) [Amorphous form] , write its reported Content.
89.6%

Given the molecule CN(C)c1cc(CN2CC3CC3C2)c(O)c2c1C[C@H]1C[C@H]3[C@H](N(C)C)C(O)=C(C(N)=O)C(=O)[C@@]3(O)C(O)=C1C2=O (single isomer, unassigned) [Crystal form II] , write its reported Content.
96.1%

Given the molecule CN(C)c1cc(CN2CC3CC3C2)c(O)c2c1C[C@H]1C[C@H]3[C@H](N(C)C)C(O)=C(C(N)=O)C(=O)[C@@]3(O)C(O)=C1C2=O (stereo partly shown) [Crystal form VII] , write its reported Content.
94.5%

====

Test: Assay 1: stability (influencing factor tests: high temperature, high humidity, illumination) of amorphous form and crystal forms I, II, VII; content and purity by HPLC
Assay type: physicochemical
Conditions: 40° C./75% ± 5% RH, Day 14
Value Kind: Purity (%)
The answer is to be given in %; state only the numeric part.

Given the compound CN(C)c1cc(CN2CC3CC3C2)c(O)c2c1C[C@H]1C[C@H]3[C@H](N(C)C)C(O)=C(C(N)=O)C(=O)[C@@]3(O)C(O)=C1C2=O (single isomer, unassigned) [Crystal form II] , write its reported Purity.
96.1

Given the compound CN(C)c1cc(CN2CC3CC3C2)c(O)c2c1C[C@H]1C[C@H]3[C@H](N(C)C)C(O)=C(C(N)=O)C(=O)[C@@]3(O)C(O)=C1C2=O (stereo partly shown) [Crystal form I] , write its reported Purity.
97.8

Given the compound CN(C)c1cc(CN2CC3CC3C2)c(O)c2c1C[C@H]1C[C@H]3[C@H](N(C)C)C(O)=C(C(N)=O)C(=O)[C@@]3(O)C(O)=C1C2=O (stereo partly shown) [Crystal form VII] , write its reported Purity.
95.7

Given the compound CN(C)c1cc(CN2CC3CC3C2)c(O)c2c1C[C@H]1C[C@H]3[C@H](N(C)C)C(O)=C(C(N)=O)C(=O)[C@@]3(O)C(O)=C1C2=O (stereo partly shown) [Amorphous form] , write its reported Purity.
92.9

====

Experiment: Assay 1: stability (influencing factor tests: high temperature, high humidity, illumination) of amorphous form and crystal forms I, II, VII; content and purity by HPLC
Format: physicochemical
Conditions: Day 0 (start of stability test)
Value Kind: Content
Please state the number and follow it with the unit.

Given the compound CN(C)c1cc(CN2CC3CC3C2)c(O)c2c1C[C@H]1C[C@H]3[C@H](N(C)C)C(O)=C(C(N)=O)C(=O)[C@@]3(O)C(O)=C1C2=O (stereo partly shown) [Crystal form I] , write its reported Content.
97.0%

Given the compound CN(C)c1cc(CN2CC3CC3C2)c(O)c2c1C[C@H]1C[C@H]3[C@H](N(C)C)C(O)=C(C(N)=O)C(=O)[C@@]3(O)C(O)=C1C2=O (stereo partly shown) [Amorphous form] , write its reported Content.
97.1%

Given the compound CN(C)c1cc(CN2CC3CC3C2)c(O)c2c1C[C@H]1C[C@H]3[C@H](N(C)C)C(O)=C(C(N)=O)C(=O)[C@@]3(O)C(O)=C1C2=O (stereo partly shown) [Crystal form VII] , write its reported Content.
95.8%

Given the compound CN(C)c1cc(CN2CC3CC3C2)c(O)c2c1C[C@H]1C[C@H]3[C@H](N(C)C)C(O)=C(C(N)=O)C(=O)[C@@]3(O)C(O)=C1C2=O (single isomer, unassigned) [Crystal form II] , write its reported Content.
94.5%

====

Assay: Assay 1: stability (influencing factor tests: high temperature, high humidity, illumination) of amorphous form and crystal forms I, II, VII; content and purity by HPLC
Assay type: physicochemical
Conditions: High temperature 60° C., Day 7
For each record, write down the corresponding Content.
The answer is to be given in %; state only the numeric part.

Given the molecule CN(C)c1cc(CN2CC3CC3C2)c(O)c2c1C[C@H]1C[C@H]3[C@H](N(C)C)C(O)=C(C(N)=O)C(=O)[C@@]3(O)C(O)=C1C2=O (stereo partly shown) [Crystal form VII] , write its reported Content.
95.2

Given the molecule CN(C)c1cc(CN2CC3CC3C2)c(O)c2c1C[C@H]1C[C@H]3[C@H](N(C)C)C(O)=C(C(N)=O)C(=O)[C@@]3(O)C(O)=C1C2=O (stereo partly shown) [Amorphous form] , write its reported Content.
94.5

Given the molecule CN(C)c1cc(CN2CC3CC3C2)c(O)c2c1C[C@H]1C[C@H]3[C@H](N(C)C)C(O)=C(C(N)=O)C(=O)[C@@]3(O)C(O)=C1C2=O (stereo partly shown) [Crystal form I] , write its reported Content.
97.7

Given the molecule CN(C)c1cc(CN2CC3CC3C2)c(O)c2c1C[C@H]1C[C@H]3[C@H](N(C)C)C(O)=C(C(N)=O)C(=O)[C@@]3(O)C(O)=C1C2=O (single isomer, unassigned) [Crystal form II] , write its reported Content.
95.8
